Give measured growth inhibition for each item. Keep answers brief.
experiment: NCI Yeast Anticancer Drug Screen. Data for the rad50 strain (AID 155);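 note: 0% = growth of vehicle-only cultures of the same strain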; conditions: S. cerevisiae rad50 strain growth inhibition; at 50.0 µM; stronger effect = higher value
Compounds without any hit were thinned out: in the full panel of roughly 79,000, 15% have a hit.
# number only, unit % dropped from output

I'd like to know its growth inhibition. The molecule in question is `Cc1nc2c(cnn2-c2ccccc2)c(=O)o1` 28.3

I'd like to know its growth inhibition. The molecule in question is `Cc1ccc(-[n+]2cc([O-])on2)cc1` 27.4

I'd like to know its growth inhibition. The molecule in question is `O=C(O)CCC(=O)NNc1ccccc1` 57.9

I'd like to know its growth inhibition. The molecule in question is `C[n+]1c(-c2cccc(OCCCCCCCCCCOc3cccc(-c4c5cc(N)ccc5c5ccc(N)cc5[n+]4C)c3)c2)c2cc(N)ccc2c2ccc(N)cc21` 79.4

I'd like to know its growth inhibition. The molecule in question is C=C1C(=O)OC2C1CCC(=C)C1CC(O)C(=C)C12 (configuration not stated) 92.2

I'd like to know its growth inhibition. The molecule in question is `CCOc1ccccc1NC1=C(Cl)C(=O)c2ccccc2C1=O` 23.9

I'd like to know its growth inhibition. The molecule in question is CC1(c2ccccc2)OC(=O)C=CC1=O (configuration not stated) 99.4

I'd like to know its growth inhibition. The molecule in question is `Cc1ccc(O)c(C(c2cc(C)ccc2O)c2cc([N+](=O)[O-])ccc2O)c1` 90.9

I'd like to know its growth inhibition. The molecule in question is `Cc1cc(O)c(NCCN(C)C)c2c(=O)c3ccccc3sc12` 98.5

I'd like to know its growth inhibition. The molecule in question is `COc1ccc2c(c1)CC/C(=C\c1ccc(OCCN(C)C)cc1)C2=O` 40.2

I'd like to know its growth inhibition. The molecule in question is BrC(Br)=C1C(=C(Br)Br)C(Br)C1Br (configuration not stated) 61.6

I'd like to know its growth inhibition. The molecule in question is S=C(Nc1ccccc1)NC1CC2C=CC1CC2 (configuration not stated) -5

Where do these numbers come from? They come from PubChem BioAssay (NCI).
